So I've got a bunch of compounds here, and I need their growth inhibition values.
Assay: NCI Yeast Anticancer Drug Screen. Data for the mec2-1 strain (AID 157)
Conditions: S. cerevisiae mec2-1 strain, at 50.0 µM, active compounds read high
The panel holds about 79,000 compounds, 15% with a hit somewhere; the sample as a whole holds those more often.
Numbers only; they are read as %.

### Prompt What value of measured growth inhibition is listed for CSc1nc[nH]c1C(N)=S ?
### Response 3

### Prompt Next: C=CC12c3c4cc(OC)cc3OC1C(O)CCC2CC4 (configuration not stated)
### Response 8.85

### Prompt Next: S=c1[nH]c2ccccc2n1CCc1ccncc1
### Response -15.1

### Prompt Next: ClCCc1ccccc1CC1=NCCc2ccccc21
### Response -26.4

### Prompt Next: CCOC(=O)c1cc2c(OC)cc(OC)cc2oc1=O
### Response 2.6

### Prompt Next: S=c1cc(S)nc[nH]1
### Response 8.3

### Prompt Next: OCn1c2ccccc2c2ccccc21
### Response 0.55

### Prompt Next: Cc1cc(OCCCC(=O)O)ccc1Cl
### Response 30.7

### Prompt Next: CC(=O)N=C1N(/C=C2\C(=O)Oc3ccccc3C2=O)C(=O)/C(=C/c2ccccc2Cl)N1C
### Response -21.9

### Prompt Next: NNC(=O)Cc1c[nH]c2ccccc12
### Response 9.4

### Prompt Next: O=C(Nc1ccc(Cl)cc1)Nc1nnc(-c2ccc(F)cc2)o1
### Response 9.25

### Prompt Next: C=C1CC(C)(C)CN(Cc2ccc([N+](=O)[O-])cc2)C(C(=O)OC)=C1C(=O)OC
### Response -2.55

### Prompt Next: O=C1CCCC(=O)N1CCCO
### Response -6.4

### Prompt Next: C=C1C(=O)OC2C1CC(OC(C)=O)/C(C)=C/CCC1(C)OC21 (configuration not stated)
### Response -35.3

### Prompt Next: OCc1c(CO)c2cccn2c2c1cnn2-c1ccccc1
### Response 1.45

### Prompt Next: CC(=O)c1ccc2cc(Cl)ccc2c1
### Response 3.45

### Prompt Next: O=C(NC(Cc1c[nH]c2ccccc12)C(=O)O)C(=O)c1c[nH]c2ccccc12 (configuration not stated)
### Response -14.6

### Prompt Next: O=NN(CCCl)C(=O)NC1CCC(C(=O)O)CC1 (configuration not stated)
### Response -2.05

### Prompt Next: c1ccc(CNc2ccccc2)cc1
### Response -29.5

### Prompt Next: O=C1OCCC2(CCN(Cc3ccccc3)CC2)O1
### Response 9.35

### Prompt Next: Nc1nc2nsnc2nc1N
### Response 12.3

### Prompt Next: CCOC(=O)C1CC(=O)NC(N)=N1 (configuration not stated)
### Response -29.4

### Prompt Next: CCCCCCCCCC[C@@H](OC(C)=O)[C@@H]1CC[C@@H]([C@@H]2CC[C@@H]([C@@H](O)CC#C/C=C/CCCCCCC[C@@]3(Sc4ccccc4)C[C@H](C)OC3=O)O2)O1
### Response -8.2

### Prompt Next: O=C1NC(=O)C(c2ccc3c(c2)OCO3)N1 (configuration not stated)
### Response -10.6

### Prompt Next: Nc1c(Cl)cc2c(c1Br)Cc1cc(F)ccc1-2
### Response 2.15

### Prompt Next: CN(C)C(=S)N(C(=S)N(C)C)c1ccc(Cl)cc1
### Response -11.8

### Prompt Next: N#CCC(=O)N1CCCCCCC1
### Response -8.9

### Prompt Next: C[N+](C)(C)C1C2(CCCCC2)NC(=O)C12CCCCC2 (configuration not stated)
### Response -0.75

### Prompt Next: CCSc1ncnc2nc[nH]c12
### Response -8.8

### Prompt Next: CN1C(=O)CC(c2cccc(C3CC(=O)N(C)C3=O)n2)C1=O (configuration not stated)
### Response -23.7

### Prompt Next: O=C(O)C(F)(F)C(F)(F)C(F)(F)C(F)(F)C(=O)O
### Response -2.95

### Prompt Next: C=CCOC(=O)Nc1ccc(S(=O)(=O)N2CCCCC2)cc1
### Response 6.1

### Prompt Next: COC(=O)C(Cc1cc(OC)c(OC)c(OC)c1)(NC(=O)c1ccccc1)P(=O)(OC)OC (configuration not stated)
### Response -1.75

### Prompt Next: Cc1ccc(S(=O)(=O)OC(c2ccc(Cl)cc2Cl)C2OC(=O)c3ccccc32)cc1 (configuration not stated)
### Response -12.4

### Prompt Next: Cc1ccc(S(=O)(=O)C(=S)SCc2ccccc2)cc1
### Response 37.8

### Prompt Next: CCCCC1=C(C)CCC1=O
### Response 8.9

### Prompt Next: CCc1cc2c(cc1C(=O)/C=C\c1cccc3ccccc13)C(C)(C)CCC2(C)C
### Response -5.35
